system: normal lung cell line (MRC-5); assay: MTT assay, MRC-5 normal cells; format: cell-based; conditions: Homo sapiens, MRC5, read-out: IC50 ± SD, MRC-5
Below, each of the compounds is paired with its reported IC50 value.
MEASURED_PROPERTY: IC50

>>> data_value("Cc1cccc(Cn2c(-n3ccnc3)cc(=O)n(C)c2=O)c1")
"61.8 µM"
>>> data_value("Cn1c(=O)cc(-n2ccnc2)n(Cc2ccc(Br)cc2)c1=O")
"> 200 µM"
>>> data_value("Cc1nccn1-c1cc(=O)n(C)c(=O)n1Cc1ccc(Br)cc1")
"> 200 µM"
>>> data_value("Cn1c(=O)cc(-n2ccnc2)n(Cc2ccccc2)c1=O")
"> 200 µM"
>>> data_value("Cc1ccc(Cn2c(-n3ccnc3)cc(=O)n(C)c2=O)cc1")
"101 µM"
>>> data_value("Cc1ccc(Cn2c(-n3ccnc3C)cc(=O)n(C)c2=O)cc1")
"> 200 µM"
>>> data_value("Cc1ccc(Cn2c(-n3cncn3)cc(=O)n(C)c2=O)cc1")
"57.3 µM"
>>> data_value("Cc1cccc(Cn2c(-n3cncn3)cc(=O)n(C)c2=O)c1")
"> 200 µM"
>>> data_value("Cc1nccn1-c1cc(=O)n(C)c(=O)n1Cc1ccccc1")
"> 200 µM"

Origin of values: paper PMC10765869
